# target of assay: T1, PKCδ
# T1 construct: Bought enzyme; also called PKC delta
# test name: in vitro PKC delta kinase activity assay, 33P-ATP, Flash Plate
Ki overview

VELDPEFEPRARERTYSFGH [Peptide 1] ... > 42 µM

input: // Ki lookup, key: VELDPEFEPRARERAYAFGH (Made from peptide 2 by changing Thr at position 15 to Ala) [Peptide 4]
output: > 42 µM
